Provide the recorded protein stability index for the entries that follow.
B1: HESX1 (parent)
chain: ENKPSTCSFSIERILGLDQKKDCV

Variants of: B1
Test: protein stability index of a GFP-peptide fusion (GPS, HEK-293T) (PSI 1-6); higher = more stable;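 also: lentivirally expressed fusions sorted by FACS into six bins by GFP to DsRed ratio, PSI derived from sequencing read proportions per bin multiplied by bin number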
Conditions: c terminus: a fixed tail appended
Give bare numbers.

Solved entries:
ENKPSTCSFSIERILGLCQKKDCV [D18C] : 2.85
ENKPSTCSFSIERMLGLDQKKDCV [I14M] : 3.15
ENKPSTCSFYIERILGLDQKKDCV [S10Y] : 2.8

Give me protein stability index for each of these variants, listed below.
1. ENKPSTCSPSIERILGLDQKKDCV [F9P]
2. ENKPSTCSFSIERILGLDQKKNCV [D22N]

OUTPUT:
[5.09, 2.9]

For every record below, what is its protein stability index?
1. EDKPSTCSFSIERILGLDQKKDCV [N2D]
2. ENKPSTCSFSEERILGLDQKKDCV [I11E]
3. ENKPSTCSFNIERILGLDQKKDCV [S10N]

OUTPUT:
2.94
5.05
3.27

# return protein stability index for each item in the list
1. ENNPSTCSFSIERILGLDQKKDCV [K3N]
2. ENKPSTISFSIERILGLDQKKDCV [C7I]
3. ENKPSTCSFSIERILGLDQKKDCY [V24Y]
4. ENKPSECSFSIERILGLDQKKDCV [T6E]
5. ENKPSTCSFSIEKILGLDQKKDCV [R13K]
6. ENKPSTCSFSIERILGDDQKKDCV [L17D]

OUTPUT:
1: 3.04; 2: 1.84; 3: 2.74; 4: 3.39; 5: 2.33; 6: 4.4

Quick batch: protein stability index for everything below.
1. ENKPSTCSFSMERILGLDQKKDCV [I11M]
2. ENKPSTCSFSIERILGLDKKKDCV [Q19K]
3. RNKPSTCSFSIERILGLDQKKDCV [E1R]
4. ENMPSTCSFSIERILGLDQKKDCV [K3M]
5. ENKPPTCSFSIERILGLDQKKDCV [S5P]

OUTPUT:
1. 3.42
2. 2.94
3. 2.79
4. 2.92
5. 3.48

Please state protein stability index for every variant in the list that follows.
1. ENPPSTCSFSIERILGLDQKKDCV [K3P]
2. ENKPSTCSFSIEAILGLDQKKDCV [R13A]
3. ENKPSNCSFSIERILGLDQKKDCV [T6N]

OUTPUT:
1: 3.17; 2: 3.18; 3: 3.06
